Each entry below carries its recorded TGI.
# Test system: MCF7 breast
# test_details: NCI tumour cell line growth inhibition, 48 h
parameter: TGI

molecule: O=S(=O)(O)C(c1ccccc1)C(O)c1ccccc1 (stereo unspecified)
parameter: TGI
result: > 100 µM
--
molecule: CCCN1C(=O)CN(S(=O)(=O)c2ccc(Cl)cc2)C1=O
parameter: TGI
result: > 100 µM
--
molecule: O=c1c(-c2ccccc2)c(SCCCN2CCCCC2)n(-c2ccccc2)c(=S)n1-c1ccccc1
parameter: TGI
result: 31.4 µM
--
molecule: NCCc1ccc(S(=O)(=O)O)cc1[N+](=O)[O-]
parameter: TGI
result: > 100 µM
--
molecule: C(=NC12CC3CC(CC(C3)C1)C2)C1CCCCC1
parameter: TGI
result: > 100 µM
--
molecule: C(=C\c1cc[n+](CCc2ccccc2)cc1)/c1ccccc1
parameter: TGI
result: > 100 µM

---

Catalogue of compounds with associated TGI
# Test system: OVCAR-4 ovarian
# test_details: NCI tumour cell line growth inhibition, 48 h
parameter: TGI

compound: CCCCCCC1OC23OC1CCC2C(O)CCC3O (stereo not given)
tested_on: OVCAR-4 ovarian
result: > 100 µM
//
compound: O[C@@H]1[C@H](OC2c3ccccc3-c3ccccc32)[C@H](OCc2ccccc2)[C@@H]2OC[C@H]1O2
tested_on: OVCAR-4 ovarian
result: > 100 µM
//
compound: O=c1c2ccccc2nc2n1CCc1c-2[nH]c2ccccc12
tested_on: OVCAR-4 ovarian
result: 43.8 µM
//
compound: CCCCC(C(=O)C(=O)Nc1ccccc1CC)C(=O)C(C)C (stereo not given)
tested_on: OVCAR-4 ovarian
result: > 100 µM
//
compound: O=C(O)c1ccccc1/C=C1\Cc2cc3c(cc2C1=O)CCC3
tested_on: OVCAR-4 ovarian
result: 85.7 µM
//
compound: O=c1oc2ccccc2c(-c2ccc(O)cc2)c1Oc1ccccc1
tested_on: OVCAR-4 ovarian
result: > 56.7 µM
//
compound: CC(=O)O[C@H]1C[C@@H]2[C@@]3(C)CC[C@H]4C[C@@]4(C)[C@@H]3CC[C@@]2(C)C2=CCC3=C(COC3=O)[C@]21C
tested_on: OVCAR-4 ovarian
result: 60.2 µM
//
compound: COc1ccc(Cn2c(Br)c3c(c2-c2cc(OC)c(OC)c(OC)c2)CCc2sc(N)nc2-3)cc1
tested_on: OVCAR-4 ovarian
result: > 57.3 µM
//
compound: c1ccc(C(NC2=NCCO2)C2CC2)cc1 (stereo not given)
tested_on: OVCAR-4 ovarian
result: > 100 µM
//
compound: COC(=O)C1=C(OC)C(=P2(c3ccccc3)CC(c3ccccc3)=C2c2ccccc2)C(C(=O)OC)=C1C(=O)OC (stereo not given)
tested_on: OVCAR-4 ovarian
result: > 100 µM

---

# Tested on: SF-295 CNS
# test_details: NCI tumour cell line growth inhibition, 48 h; in the data active = GI50 below about 0.43 µM; inactive = the rest
Labels: YES for active, NO for inactive

chemical_string: COc1ccccc1CNCCCN1C(=O)c2ccc3c4c(ccc(c24)C1=O)C(=O)N(CCCNCc1ccccc1OC)C3=O
category: YES

chemical_string: CNCc1cccc2c1OCCOCCOCCNS(=O)(=O)c1ccc(cc1)-c1cnc(N)c(n1)C(=O)N2
category: NO

chemical_string: COc1cc2c3c(n(CCCN)c(=O)c2cc1OC)-c1ccc(N)cc1C3=O
category: NO

chemical_string: CN(C)[C@@H]1C(=O)C(C(=O)NCc2nc3[nH]cnc(=S)c3[nH]2)=C(O)[C@@]2(O)C(=O)C3=C(O)c4c(O)cccc4[C@@](C)(O)[C@H]3C[C@@H]12
category: NO

chemical_string: Cc1ccc(-c2nc([P+](c3ccccc3)(c3ccccc3)c3ccccc3)c(N3CCOCC3)o2)cc1
category: NO

chemical_string: CC[C@]12C=CCN3CC[C@@]4(c5ccc(OC)cc5N(C)[C@H]4[C@@](O)(C(=O)OC)[C@@H]1OC(=O)CCCN1CCN(CCCC(=O)O[C@@H]4[C@]5(CC)C=CCN6CC[C@@]7(c8ccc(OC)cc8N(C)[C@H]7[C@@]4(O)C(=O)OC)[C@@H]65)CC1)[C@@H]32
category: NO

chemical_string: COc1cc2c(Oc3ccc(-c4cnc(Nc5ccc(F)cc5)n(C)c4=O)cc3F)ccnc2cc1OCCCN1CCOCC1
category: NO

chemical_string: OC[C@H]1C[C@](O)(c2ccc(F)cc2)[C@@H](c2ccc(F)cc2)O1
category: NO
